Where these numbers come from: ChEMBL document CHEMBL1201862

# TEST_SYSTEM: Carboxy-terminal domain RNA polymerase II polypeptide A small phosphatase 1 (Homo sapiens, UniProt Q9GZU7)
# Sequence (Q9GZU7 whole entry, the tested form may be a part): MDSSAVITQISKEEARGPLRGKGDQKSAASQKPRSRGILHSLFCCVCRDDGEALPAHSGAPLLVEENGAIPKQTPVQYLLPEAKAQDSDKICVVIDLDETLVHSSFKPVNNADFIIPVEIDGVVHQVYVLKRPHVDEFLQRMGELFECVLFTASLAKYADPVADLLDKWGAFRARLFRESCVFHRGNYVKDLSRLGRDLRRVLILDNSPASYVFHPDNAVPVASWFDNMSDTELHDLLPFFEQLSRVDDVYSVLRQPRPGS
# ASSAY_SUMMARY: inhibitors of CTDSP1, concentration-response testing, biochemical assay, absorbance-based, actives from ultra-high-throughput screening (AID 540297)
# Assay type: functional
Calls of active or inactive are those of the source. No stated cut-off is given here; in the data, actives have a measured IC50 and inactives only a lower limit.
ENDPOINT: IC50

A selection of reference data follows.
"O=C(O)c1ccc2c(c1)C(=O)/C(=C/c1ccccc1)C2=O" yielded IC50 of 3.5 µM (active)

Reported IC50 for "CCCCCn1c(N)c(-c2nc3ccccc3o2)c2c([N+](=O)[O-])nn(C)c(=O)c21" was 3.06 µM (active)

IC50 reported for this molecule "COc1ccc(N2Cc3cccc(C(=O)N4CCN(C(=O)c5ccco5)CC4)c3C2=O)cc1" : 4.24 µM (active)

The measured IC50 associated with "c1ccc2c(c1)nc(N1CCCCCC1)c1ccccc12" reads 17.4 µM (active)

--- query ---
get_value(item= "Cc1cccc(C(=O)Nc2ccc(C(=O)N/N=C/c3ccco3)cc2)c1" , readout=IC50) returns 4.79 µM (active)
